Origin of measurements: patent US20240279318A1

target: T1, AFP158/HLA-A*02:01 complex (human); assay: SPR, crude scFv captured, pMHC analyte;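 note: pMHC analyte injected at three concentrations, association phase of one hundred seconds, then running buffer for dissociation, rates fitted from both curves, KD derived from the rates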
T1 construct: flowed as analyte in SPR
Provide the reported kon of each item.
Value and unit, in that order.

Challenge: Which kon reading was recorded for the binder AS170036 VL1VH1-57K108D (scFv, also called 26-AS170036 VL1VH1-57K108D) scFv: QSALTQPRSVSGSPGQSVTISCAGTSSDVGSENYVSWYQQHPGKAPKLMIYQVNKRASGVPDRFSGSKSGNTASLTISGLQAEDEADYYCASYRSSDHNIVFGGGTKLTVLGGGGSGGGGSGGGGSEVQLVESGGGLVQPGGSLRLSCAASGFTFSSYAMSWVRQAPGKGLEWVSTINSGTGKPYYADSVKGRFTISRDNSKNTLYLQMNSLRAEDTAVYYCAKNFFDGSWFLDPPAMDYWGQGTLVTVSSHHHHHH ?
Response given: 190000 M⁻¹ s⁻¹

Challenge: What measured kon goes with AS170036 VL1VH1-56N108A (scFv, also called 19-AS170036 VL1VH1-56N108A) scFv: QSALTQPRSVSGSPGQSVTISCAGTSSDVGSENYVSWYQQHPGKAPKLMIYQVNKRASGVPDRFSGSKSGNTASLTISGLQAEDEADYYCASYRSSDHNIVFGGGTKLTVLGGGGSGGGGSGGGGSEVQLVESGGGLVQPGGSLRLSCAASGFTFSSYAMSWVRQAPGKGLEWVSTINSGTNSPYYADSVKGRFTISRDNSKNTLYLQMNSLRAEDTAVYYCAKNFFDGSWFLAPPAMDYWGQGTLVTVSSHHHHHH ?
Response given: 240000 M⁻¹ s⁻¹

Challenge: Endpoint output: kon of AS170036 VL1VH1-57H98I (scFv, also called 08-AS170036 VL1VH1-57H98I) scFv: QSALTQPRSVSGSPGQSVTISCAGTSSDVGSENYVSWYQQHPGKAPKLMIYQVNKRASGVPDRFSGSKSGNTASLTISGLQAEDEADYYCASYRSSDINIVFGGGTKLTVLGGGGSGGGGSGGGGSEVQLVESGGGLVQPGGSLRLSCAASGFTFSSYAMSWVRQAPGKGLEWVSTINSGTGHPYYADSVKGRFTISRDNSKNTLYLQMNSLRAEDTAVYYCAKNFFDGSWFLGPPAMDYWGQGTLVTVSSHHHHHH . Value?
Response given: 200000 M⁻¹ s⁻¹

Challenge: Name the recorded kon for AS170036 VL1VH1-57H108A (scFv, also called 22-AS170036 VL1VH1-57H108A) scFv: QSALTQPRSVSGSPGQSVTISCAGTSSDVGSENYVSWYQQHPGKAPKLMIYQVNKRASGVPDRFSGSKSGNTASLTISGLQAEDEADYYCASYRSSDHNIVFGGGTKLTVLGGGGSGGGGSGGGGSEVQLVESGGGLVQPGGSLRLSCAASGFTFSSYAMSWVRQAPGKGLEWVSTINSGTGHPYYADSVKGRFTISRDNSKNTLYLQMNSLRAEDTAVYYCAKNFFDGSWFLAPPAMDYWGQGTLVTVSSHHHHHH .
Response given: 210000 M⁻¹ s⁻¹

Challenge: Please look up its kon: AS170036 VL1VH1-57K98Q (scFv, also called 12-AS170036 VL1VH1-57K98Q) scFv: QSALTQPRSVSGSPGQSVTISCAGTSSDVGSENYVSWYQQHPGKAPKLMIYQVNKRASGVPDRFSGSKSGNTASLTISGLQAEDEADYYCASYRSSDQNIVFGGGTKLTVLGGGGSGGGGSGGGGSEVQLVESGGGLVQPGGSLRLSCAASGFTFSSYAMSWVRQAPGKGLEWVSTINSGTGKPYYADSVKGRFTISRDNSKNTLYLQMNSLRAEDTAVYYCAKNFFDGSWFLGPPAMDYWGQGTLVTVSSHHHHHH
Response given: 160000 M⁻¹ s⁻¹
